Can you tell me normalized growth for the items I'm about to list?
assay: chemical genetic growth profiling, strain panel (AID 1159580);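 further: tested at 20 µM; growth read once vehicle control cultures reached saturation at 30 °C; 1 = growth at the plate median or of vehicle wells; lower values mean less growth of the strain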; details: S. cerevisiae deletion strains, growth OD, locus YDR297W, strain sur2, stronger effect = lower value
Screen size: about 5,500 compounds; about 2,000 (36%) were called active. Another 18% or so got no clear call; they are omitted. The list shows a part of the results.
Answers are plain numbers.

See these solved cases before continuing.
>  <molecule>
CC(=O)/C=C\[C@@H]1[C@@]2(C)CCCC(C)(C)C2CC[C@@]1(C)O (stereo partly drawn)

>  <test_value>
0.982

$$$$
>  <molecule>
COc1c(-c2coc3cc4c(cc3c2=O)CC(O)C(C)(C)O4)ccc2c1C=CC(C)(C)O2 (stereo not drawn)

>  <test_value>
0.978

$$$$
>  <molecule>
CCC(C)C(=O)O[C@H]1[C@H](O)C2C(CN3CC(C)CCC3[C@@]2(C)O)C2C[C@]34O[C@]5(O)C(OC(=O)C(C)(O)CC)CC[C@@]3(C)C5C(OC(C)=O)[C@@H](OC(C)=O)C4[C@@]21O (stereo partly drawn)

>  <test_value>
1.01

$$$$
>  <molecule>
COc1cc(C(=O)NCCCCCC(=O)O)cc(OC)c1OC

>  <test_value>
0.962

$$$$
>  <molecule>
CC(C)=CCCC1(C)C=Cc2c(O)c3c(c(CC=C(C)C)c2O1)OC12C(=CCCC1C(C)(C)O[C@@]2(C/C=C(\C)C(=O)O)C(=O)O)C3=O (stereo partly drawn)

>  <test_value>
0.861

$$$$
>  <molecule>
CC(C)CCCC1(C)C=Cc2c(O)c3c(c(CCC(C)C)c2O1)OC12C(CC4CC1C(C)(C)OC2(CCC(C)C(=O)O)C4O)C3=O (stereo not drawn)

>  <test_value>
0.998

$$$$
>  <molecule>
Cc1ccc(N=CN(C)C=Nc2ccc(C)cc2C)c(C)c1

>  <test_value>
0.977

$$$$

Now consider a different molecule.
Req: # normalized growth lookup, item CC(=O)NC(C(=O)O)C(C)(C)SN=O (stereo not drawn)
Resp: 0.98

Taken from PubChem BioAssay AID1159580.
